tested on: NCI-H196 complex spheroid growth, percent test/control; test: Anticancer human tumor NCI-H196 cell line growth inhibition [AhR]; details: second compound 0.316 µM; first compound 3.16 µM; hits give low values;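 further: seven days of drug exposure starting three days after plating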
Each record is given satisfied if its reported viability, T/C is strictly below 90%. Records at or above 90% are given not satisfied.

Example cases with answers are listed next.
CC1(C)CCC(CN2CCN(c3ccc(C(=O)NS(=O)(=O)c4ccc(NCC5CCOCC5)c([N+](=O)[O-])c4)c(Oc4cnc5[nH]ccc5c4)c3)CC2)=C(c2ccc(Cl)cc2)C1 + Cc1cncc(-c2nc(NCCc3c[nH]c4ccccc34)c3ncn(C(C)C)c3n2)c1 : not satisfied
O=C(C=Cc1cccc(S(=O)(=O)Nc2ccccc2)c1)NO + Cc1cncc(-c2nc(NCCc3c[nH]c4ccccc34)c3ncn(C(C)C)c3n2)c1 : satisfied
Nc1ccccc1NC(=O)c1ccc(CNC(=O)OCc2cccnc2)cc1 + Cc1cncc(-c2nc(NCCc3c[nH]c4ccccc34)c3ncn(C(C)C)c3n2)c1 : satisfied

Hello, I'm reviewing records and need to know if viability, T/C of COc1cc(C2c3cc4c(cc3C(OC3OC5COC(C)OC5C(O)C3O)C3COC(=O)C23)OCO4)cc(OC)c1O (stereo not given) + CC(CO)NC(=O)c1cc(-c2ccc(Cl)cc2)nn(-c2cnn(C)c2)c1=O is below 90%. Could you check?
not satisfied
